Measured Mean relative potency, listed per entry for reference.
Experiment: Mean relative potency is the ratio of potencies of 'Ac-(Cha)RAMASL-NH2' and compound to inhibit MHC class II DRB1*0101
Starred links: 1 amine or outer side, 2 acyl side, 3 side chain; linkers in the order of their positions; H or OH if unused. Non-standard residues stand in square brackets, D forms with d. Residues, ends and D or L forms follow the SMILES beside them. ξ: configuration not given here. Haic = O=C1[C@@H](N[*:1])CCc2cccc3c2N1[C@H](C(=O)[*:2])C3; NMePhg = CN[C@H](C(=O)O)c1ccccc1; Tic = O=C(O)[C@@H]1Cc2ccccc2CN1; Cha = N[C@@H](CC1CCCCC1)C(=O)O; ξTle = CC(C)(C)C(N)C(=O)O; NMeA = CN[C@@H](C)C(=O)O; ξNMeA = CNC(C)C(=O)O
Please reply with the number alone, leaving off any unit.

# annotated cases, reported Mean relative potency shown
[[record]]
molecule = "CC(=O)N[C@@H](CC1CCCCC1)C(=O)N[C@@H](CCCN=C(N)N)C(=O)N1Cc2ccccc2C[C@H]1C(=O)N[C@H]1CCc2cccc3c2N(C1=O)[C@H](C(=O)N[C@@H](CO)C(=O)N(C)[C@@H](C)C(N)=O)C3 (Ac-[Cha]R[Tic][Haic]S[NMeA]-NH2)"
readout_label = "Mean relative potency"
result = 0.12

[[record]]
molecule = "CC(=O)N[C@@H](CC1CCCCC1)C(=O)N[C@@H](CCCN=C(N)N)C(=O)N(C)[C@H](C(=O)N[C@H]1CCc2cccc3c2N(C1=O)[C@H](C(=O)N[C@@H](CO)C(=O)NC(C(N)=O)C(C)(C)C)C3)c1ccccc1 (some centres undefined) (Ac-[Cha]R[NMePhg][Haic]S[ξTle]-NH2)"
readout_label = "Mean relative potency"
result = 0.06

[[record]]
molecule = "CSCC[C@@H](NC(=O)[C@H]1Cc2ccccc2CN1C(=O)[C@H](CCCN=C(N)N)NC(=O)[C@H](CC1CCCCC1)NC(C)=O)C(=O)N1CCC(c2ccccc2)[C@@H]1C(=O)N[C@@H](CO)C(=O)N(C)[C@@H](C)C(N)=O (some centres undefined)"
readout_label = "Mean relative potency"
result = 0.84


API: the following record is the query input.
[Q] For CC(=O)N[C@@H](CC1CCCCC1)C(=O)N[C@@H](CCCN=C(N)N)C(=O)N(C)[C@H](C(=O)N[C@H]1CCc2cccc3c2N(C1=O)[C@H](C(=O)N[C@@H](CO)C(=O)N(C)C(C)C(N)=O)C3)c1ccccc1 (some centres undefined) (Ac-[Cha]R[NMePhg][Haic]S[ξNMeA]-NH2) , write its Mean relative potency.
[A] 0.01
